Provenance of the data: patent US5955055A

- Tested on: anti-SP-4 antiserum
- assayProtocol: ELISA for immunological cross-reactivity with anti-SP-4 antiserum
- Type: binding, rabbit
- experimentalConditions: ELISA plates coated with LDL or peptide, 100 ng per well
- Excerpt: To determine whether the molecular conformation or structure of the synthetic apoB peptides was analogous to the conformation of the apoB moiety of LDL, a polyclonal antiserum was raised to each peptide and its ability to bind LDL tested. […] After a final wash, the wells were filled with 3,3'-5,5'-tetramethybenzidine (TMB) microwell peroxidase substrate (Kirkegaard and Perry Labs, Gaithersburg, Md.) and read at 650 nm every two minutes on an ELISA-5 automated plate reader (Physica, New York, N.Y.). […]
Ends that are not written are not given here.
measurementKind: Binding of anti-SP-4 antiserum to coated antigen

Answered examples (6):
| substance | testedTarget | resultValue |
| --- | --- | --- |
| Ac-YRALVDTLK-NH2 [SP-14A] | anti-SP-4 antiserum | shown to bind |
| Ac-YKLALEAARLLANAEGAK-NH2 [SP-8A] | anti-SP-4 antiserum | shown to bind |
| Ac-YRALVDYLKFVTQL-NH2 [SP-12A] | anti-SP-4 antiserum | shown to bind |
| YKLALEAARLLANAEGAK-NH2 [SP-8] | anti-SP-4 antiserum | shown to bind |
| Ac-YRALVDTLKFVTQAEGAK-NH2 [SP-4A] | anti-SP-4 antiserum | shown to bind |
| Ac-YKLALEAARLLADAEGAK-NH2 [SP-6A] | anti-SP-4 antiserum | shown to bind |

Record lookup: for anti-SP-4 antiserum, what Binding of anti-SP-4 antiserum to coated antigen belongs to YKLALEAARLLADAEGAK-NH2 [SP-6] ?
shown to bind

Record lookup: for anti-SP-4 antiserum, what Binding of anti-SP-4 antiserum to coated antigen belongs to YRALVDTLKFVTQAEGAK-NH2 [SP-4] ?
shown to bind
